Assay: NIH3T3 cell viability loss – ATP luminescence, mouse fibroblasts, counter-screen, dose response (AID 2010);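 note: cells exposed to compound for about 90 hours before reading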
Format: functional, cell-based
Active and inactive are the calls of the source.
PROPERTY NAME: EC50

What EC50 value was documented for this molecule, O=C(c1ccc(CSc2nc3cc[nH]cc-3n2)cc1)N1CCN(c2cccc(Cl)c2)CC1 ? > 60 µM (not active)

What EC50 value was documented for this molecule, CC(=O)c1ccc(N2CCC(c3cc(-c4ccc(Cl)cc4)[nH]n3)CC2)c([N+](=O)[O-])c1 ? > 60 µM (inconclusive)

What EC50 value was documented for this molecule, COc1cccc(-n2c(SCC(=O)Nc3sc4c(c3C(N)=O)CCC4)nc3ccccc3c2=O)c1 ? > 60 µM (not active)

What EC50 value was documented for this molecule, O=S(=O)(c1ccc(Cl)cc1)N1CCC(n2cnc3cc(C(F)(F)F)ccc32)CC1 ? > 60 µM (not active)

What EC50 value was documented for this molecule, Cc1ccc2c(C(=O)CCl)c(C)[nH]c2c1 ? 11.3 µM (active)

What EC50 value was documented for this molecule, Cc1ccc(S(=O)(=O)c2c(C)cc(C)nc2Cl)c(C)c1 ? > 60 µM (not active)

* * *

Target: Paired box protein Pax-8 (Homo sapiens, UniProt Q06710)
Sequence (Q06710 whole entry): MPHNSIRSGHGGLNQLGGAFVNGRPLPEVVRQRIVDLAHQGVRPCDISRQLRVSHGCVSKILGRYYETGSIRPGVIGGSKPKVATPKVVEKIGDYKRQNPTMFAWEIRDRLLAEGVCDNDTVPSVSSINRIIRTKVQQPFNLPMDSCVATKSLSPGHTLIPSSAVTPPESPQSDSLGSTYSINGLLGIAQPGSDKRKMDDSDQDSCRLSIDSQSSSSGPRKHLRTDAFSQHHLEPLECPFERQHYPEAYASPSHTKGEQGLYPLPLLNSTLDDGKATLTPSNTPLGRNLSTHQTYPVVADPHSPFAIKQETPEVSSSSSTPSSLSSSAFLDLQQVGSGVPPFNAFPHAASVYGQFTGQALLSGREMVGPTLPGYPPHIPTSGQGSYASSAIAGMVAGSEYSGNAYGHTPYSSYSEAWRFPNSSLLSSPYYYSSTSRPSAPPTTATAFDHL
Assay: PAX8 transcriptional activity inhibition in RMG-I – RMG-I cells, luciferase, cherry-pick, dose response (AID 687027);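 note: luciferase reporter driven by Pax8 target thyroperoxidase promoter measured by SteadyGlo luminescence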
Format: functional, cell-based
The source made the active and inactive calls.
What AC50 was measured for each of the following?

Requested read-out AC50, target or system Paired box protein Pax-8 (Homo sapiens, UniProt Q06710), entry COc1ccc(NC(=O)Nc2ccc3c(c2)C(=O)N([C@@H](C)CO)C[C@@H](C)[C@@H](CN(C)Cc2ccc(C(F)(F)F)cc2)O3)cc1 13.9 µM (active)

Requested read-out AC50, target or system Paired box protein Pax-8 (Homo sapiens, UniProt Q06710), entry CC(=O)NC(c1ccc2ccccc2c1)c1ccc2cccnc2c1O (configuration not stated) 1.89 µM (active)

Requested read-out AC50, target or system Paired box protein Pax-8 (Homo sapiens, UniProt Q06710), entry COc1cccc2c1C(=O)c1c(O)c3c(c(O)c1C2=O)CC(O)(C(C)=NNC(=O)c1ccc(Cl)c(Cl)c1)CC3OC1CC(N)C(O)C(C)O1 (configuration not stated) 4.72 µM (active)

Requested read-out AC50, target or system Paired box protein Pax-8 (Homo sapiens, UniProt Q06710), entry O=[N+]([O-])c1ccc(N/N=C/c2sc(N3CCOCC3)nc2-c2ccccc2)c(S(=O)(=O)Nc2ccc(Cl)cc2)c1 1.99 µM (active)

Requested read-out AC50, target or system Paired box protein Pax-8 (Homo sapiens, UniProt Q06710), entry C[C@@H]1CCCCO[C@H](CN(C)C(=O)Nc2cccc3ccccc23)[C@H](C)CN([C@@H](C)CO)C(=O)c2cc(NS(=O)(=O)c3ccc(Cl)cc3)ccc2O1 5.39 µM (active)

Requested read-out AC50, target or system Paired box protein Pax-8 (Homo sapiens, UniProt Q06710), entry CCCCCCCCCCCCn1ccc(=N)cc1 3.74 µM (active)

Requested read-out AC50, target or system Paired box protein Pax-8 (Homo sapiens, UniProt Q06710), entry C[C@H]1CCCCO[C@H](CN(C)C(=O)Nc2ccc(C(F)(F)F)cc2)[C@@H](C)CN([C@@H](C)CO)C(=O)c2cc(NS(=O)(=O)c3ccc(Cl)cc3)ccc2O1 4.68 µM (active)
